Molecular target: T1, human Protein S (human, UniProt P07225 42-676)
T1 construct: Called 'full length Protein S' / 'human full-length Protein S'; It was coated on plates (ELISA), Eu-labeled (LANCE) or immobilized on a chip (Biacore); also called PS; full length Protein S
T1 sequence: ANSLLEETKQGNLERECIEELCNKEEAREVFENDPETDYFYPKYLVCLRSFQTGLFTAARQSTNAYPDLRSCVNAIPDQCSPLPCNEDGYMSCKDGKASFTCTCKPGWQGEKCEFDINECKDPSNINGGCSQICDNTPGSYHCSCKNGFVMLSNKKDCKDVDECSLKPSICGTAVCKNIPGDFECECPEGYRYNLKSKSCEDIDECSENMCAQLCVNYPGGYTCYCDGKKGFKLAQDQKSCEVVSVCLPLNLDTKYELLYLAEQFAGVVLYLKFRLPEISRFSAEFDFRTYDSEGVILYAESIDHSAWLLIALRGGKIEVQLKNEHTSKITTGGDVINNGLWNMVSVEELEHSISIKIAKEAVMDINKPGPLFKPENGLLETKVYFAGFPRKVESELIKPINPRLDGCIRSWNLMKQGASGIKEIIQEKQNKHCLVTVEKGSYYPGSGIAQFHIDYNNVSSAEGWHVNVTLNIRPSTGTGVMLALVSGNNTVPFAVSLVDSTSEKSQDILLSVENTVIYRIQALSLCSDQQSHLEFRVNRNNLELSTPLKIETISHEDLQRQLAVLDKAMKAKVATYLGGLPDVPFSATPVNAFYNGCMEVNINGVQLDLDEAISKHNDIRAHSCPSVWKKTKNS
Assay: Biacore (SPR), Protein S immobilized
Non-standard residues stand in square brackets, D forms with d. 400Mal‑PEG = 40 kD PEG moiety attached via maleimide; Cys(Me-400MA) = not defined here
The following binders are shown together with reported log10(kon) values.
Transform log10 | Measure kon | Unit M⁻¹ s⁻¹

binder="Ac-EYIVTAGWYDYNKDIYYEFK[Cys(Me-400MA)]-NH2 (reading uncertain, JBS3206 monomer comprising a 40 kD PEG moiety) [JBS3322]" result=4.89
binder="Ac-EYYVSAGWYDYNTDTYYEFEC-NH2 (not fully specified (residue 21), Tetramer of JBS3319 monomers with a four arm 10 kD PEG moiety) [JBS3321]" result=6.20
binder="Ac-HWYVSAGWYDYNEDKYYEFE-NH2 [JBS3306]" result=6.00
binder="Ac-EYYVSAGWYDYNTDTYYEFEC(400Mal‑PEG)-NH2 (JBS3319 conjugated to a 40 kD PEG moiety) [JBS3318]" result=5.18
binder="Ac-TGLVSAGWYDYNFDHYREFTC-NH2 (not fully specified (residue 21); also: tetramer: four peptides on a 40 kD four-arm PEG core) [JBS3179]" result=5.61
binder="Ac-AIYVTAGWYDYNNDTYYEFT-NH2 [JBS3283]" result=5.87
binder="Ac-EYYVSAGWYDYNTDTYYEFE-NH2 [JBS3216]" result=6.06

Now turn to the next binder.
Query: Report log10(kon) for Ac-EYIVTAGWYDYNKDIYYEFK-NH2 [JBS3263] please.
Reply: 5.80
